Property: self-cleavage; scope: individual variants
B1: Hairpin Ribozyme (parent)
chain: GUCCUCUUUCACGUGCGCGUGAAAGAGAGAAGUGAACCAGAGAAACACACGUUGUGGUAUAUUACCUGGUA

# Variants of: B1
# experiment-notes: self-cleavage, relative activity (ratio to wild type); higher = more cleavage; co-transcriptional
Please give only the number in your answer, with no unit.

Solved cases below.
{"mutation-annotation": "C37G C38A", "measured": 0.152}
{"mutation-annotation": "G21A C46A", "measured": 0.149}
{"mutation-annotation": "U7G G21C", "measured": 0.332}
{"mutation-annotation": "A44U G56A", "measured": 0.191}
{"mutation-annotation": "U2A C6G", "measured": 0.247}
{"mutation-annotation": "U5A U53C", "measured": 0.452}

Proceed to the following item.
For the variant C6A A47U , what self-cleavage is on record? 0.182
